Tested on: RAW-Dual (murine macrophage reporter line)
Assay: viability score (confluency relative to resting cells, overnight) (fraction); higher = more viable, active = viable (0.7 or more)
Settings: modulator concentration 10 µM
Listed next: entries and their corresponding viability score.
Could you keep your reply to the number by itself?

As a guide, the following entries are already answered.
CCN(CC)CCOC(=O)C(Cc1cccc2ccccc12)CC1CCCO1.O=C(O)C(=O)O (configuration not stated)    0.977
CCc1c(C)[nH]c2c1C(=O)C(CN1CCOCC1)CC2 (configuration not stated) [Prestw-1035]    1
CNCCc1ccccn1.Cl.Cl    0.997
Br.C=CCn1c(=N)n(CC(=O)c2cccc([N+](=O)[O-])c2)c2ccccc21    1.01
Cc1cc(C)c2c(c1)[C@@H](N(Cc1cc(C(F)(F)F)cc(C(F)(F)F)c1)c1nnn(C)n1)CCCN2C[C@H]1CC[C@H](C(=O)O)CC1    1.01
COC(c1ccccc1)(c1ccccc1)[C@H](Oc1nc(C)cc(C)n1)C(=O)O    1
CN1C(C(=O)Nc2ccccn2)=C(O)c2ccccc2S1(=O)=O    1.02
CCC(=O)N1CCCC1c1nc2ccccc2n1CCOc1ccc(Cl)cc1 (configuration not stated)    0.996
CC(C)NCC(O)COc1ccc(CCOCC2CC2)cc1.Cl (configuration not stated)    0.981
CCOC(=O)c1cc(-c2ccccc2)sc1NC(=O)C(C)(C)C    1.02

Ask: Name the reported viability score value associated with the compound Cc1cnc2c(c1SCC(=O)N1CCc3ccccc31)c(=O)n(C)c(=O)n2C
Result: 1.01

Ask: Query O=C(CCn1c(=O)oc2ccccc21)Nc1ccccc1 next
Result: 0.998

Ask: Query O=C(CCc1ccc(O)cc1)c1c(O)cc(O)cc1O next
Result: 0.998

Ask: Query COc1ccc(C(=O)C=Cc2cc(OC)c(OC)cc2OC)c(OC)c1 next
Result: 1

Ask: Query CC1(C)[C@H](C(=O)O)N2C(=O)C[C@H]2S1(=O)=O next
Result: 0.994

Ask: Query Cc1cc2ncn(CC3CCN(C(=O)COc4ccc(F)cc4)CC3)c2cc1C.O=C(O)C(=O)O next
Result: 1

Ask: Query O=C(Nc1ccc(F)cc1)c1ccccc1Br next
Result: 0.979
